Ref: ChEMBL document CHEMBL1944548

# test-description: Solubility of the compound in PBS buffer at 250 uM at pH 7 by UV spectrophotometry
# Format: physicochemical
test-readout: solubility at 250 µM
# include the unit after the value

Examples from the recorded data:
[
  {
    "compound": "CC(C)NCC(=O)N1C/C=C/CCOc2cccc(c2)-c2ccnc(n2)Nc2cccc(c2)C1",
    "solubility at 250 µM": "105 µg/mL"
  },
  {
    "compound": "CCN(CC)CCOc1ccc2cc1CN(C)C/C=C/CCOc1cccc(c1)-c1ccnc(n1)N2",
    "solubility at 250 µM": "150 µg/mL"
  },
  {
    "compound": "CN1C/C=C/CCOc2cccc(c2)-c2ccnc(n2)Nc2ccc(OCCN3CCCCC3)c(c2)C1",
    "solubility at 250 µM": "146 µg/mL"
  },
  {
    "compound": "CN1C/C=C/CCOc2cccc(c2)-c2ccnc(n2)Nc2ccc(OCCN3CCCC3)c(c2)C1",
    "solubility at 250 µM": "150 µg/mL"
  },
  {
    "compound": "CN1C/C=C/CCOc2cccc(c2)-c2ccnc(n2)Nc2ccc(OCCN3CCOCC3)c(c2)C1",
    "solubility at 250 µM": "154 µg/mL"
  },
  {
    "compound": "CN1C/C=C/CCOc2cccc(c2)-c2ccnc(n2)Nc2cccc(c2)C1 [ZOTIRACICLIB]",
    "solubility at 250 µM": "71.8 µg/mL"
  }
]

API: the following record is the query input.
Enquiry: Which value of solubility at 250 µM has been reported for CN1C/C=C/CCOc2cccc(c2)-c2ccnc(n2)Nc2ccc(N3CCOCC3)c(c2)C1 in the records?
Return: 147 µg/mL

---

# test-description: Oral bioavailability in Beagle dog at 10 mg/kg by LC-MS/MS analysis
# particulars: in vivo
test-readout: bioavailability (%)
State just the number; it will be interpreted in %.

Enquiry: Which value of bioavailability has been reported for CN1C/C=C/CCOc2cccc(c2)-c2ccnc(n2)Nc2cccc(c2)C1 in the records?
Return: 37

---

This section presents molecules with their documented pIC50 values.
# target-under-test: UniProt:P36888
# Sequence (P36888 whole entry): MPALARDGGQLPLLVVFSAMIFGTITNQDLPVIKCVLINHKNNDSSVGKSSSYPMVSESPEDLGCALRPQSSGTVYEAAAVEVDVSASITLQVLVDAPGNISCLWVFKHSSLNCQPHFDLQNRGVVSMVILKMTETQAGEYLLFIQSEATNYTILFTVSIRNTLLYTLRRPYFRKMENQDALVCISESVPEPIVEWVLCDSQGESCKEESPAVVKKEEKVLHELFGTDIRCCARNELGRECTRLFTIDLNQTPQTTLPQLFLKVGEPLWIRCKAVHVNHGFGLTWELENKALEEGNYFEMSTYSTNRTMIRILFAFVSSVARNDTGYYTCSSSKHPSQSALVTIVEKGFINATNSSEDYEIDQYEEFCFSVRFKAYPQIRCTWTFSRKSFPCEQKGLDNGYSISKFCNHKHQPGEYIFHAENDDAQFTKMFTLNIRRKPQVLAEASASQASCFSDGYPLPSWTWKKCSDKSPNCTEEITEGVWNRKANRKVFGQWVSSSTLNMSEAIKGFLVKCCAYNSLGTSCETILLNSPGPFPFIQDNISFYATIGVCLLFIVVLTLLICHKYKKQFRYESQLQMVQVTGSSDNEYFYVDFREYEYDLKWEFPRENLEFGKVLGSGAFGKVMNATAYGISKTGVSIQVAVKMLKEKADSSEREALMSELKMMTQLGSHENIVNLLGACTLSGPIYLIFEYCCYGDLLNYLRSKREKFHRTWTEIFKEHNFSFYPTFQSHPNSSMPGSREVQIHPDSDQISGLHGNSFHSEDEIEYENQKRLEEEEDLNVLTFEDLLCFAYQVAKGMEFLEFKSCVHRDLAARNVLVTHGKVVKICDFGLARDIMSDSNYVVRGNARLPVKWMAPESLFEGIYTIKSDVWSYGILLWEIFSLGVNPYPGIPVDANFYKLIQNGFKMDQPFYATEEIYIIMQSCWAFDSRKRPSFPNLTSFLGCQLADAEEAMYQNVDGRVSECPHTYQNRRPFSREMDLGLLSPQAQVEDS
# test-description: Inhibition of recombinant Flt3 using poly(Glu,Tyr) as substrate after 2 hrs by luminescence assay
The quantity pIC50 is defined as the negative base-10 logarithm of the molar concentration.

Examples from the recorded data:
[
  {
    "compound-smiles": "CN1C/C=C/CCOc2cccc(c2)-c2ccnc(n2)Nc2cccc(c2)C1",
    "recorded-result": 7.25
  },
  {
    "compound-smiles": "C1=C/CN(Cc2ccccn2)Cc2cccc(c2)Nc2nccc(n2)-c2cccc(c2)OCC/1",
    "recorded-result": 5.84
  },
  {
    "compound-smiles": "CC(C)CN1C/C=C/CCOc2cccc(c2)-c2ccnc(n2)Nc2cccc(c2)C1",
    "recorded-result": 6.72
  },
  {
    "compound-smiles": "CCS(=O)(=O)c1ccc2cc1CN(C)C/C=C/CCOc1cccc(c1)-c1ccnc(n1)N2",
    "recorded-result": 6.36
  },
  {
    "compound-smiles": "N#CCN1C/C=C/CCOc2cccc(c2)-c2ccnc(n2)Nc2ccc(OCCN3CCCC3)c(c2)C1",
    "recorded-result": 7.54
  }
]

Enquiry: Which value of pIC50 has been reported for O=C1CC/C=C\COc2cccc(c2)-c2ccnc(n2)Nc2cccc(c2)N1 in the records?
Return: 5.99

Enquiry: Could you do the same for CN1C/C=C/CCOc2cccc(c2)-c2ccnc(n2)Nc2ccc(N3CCOCC3)c(c2)C1 , please?
Return: 7.15

Enquiry: Could you do the same for CN1C/C=C/CCOc2cccc(c2)-c2ccnc(n2)Nc2ccc(Cl)c(c2)C1 , please?
Return: 7.11
